Origin of the recorded values: the supplement of paper PMC10567573

protein stability index: recorded values
B1: KCNAB2 (parent)
chain: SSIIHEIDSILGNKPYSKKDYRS

Variants of: B1
Test: protein stability index of a GFP-peptide fusion (GPS, HEK-293T) (PSI 1-6); higher = more stable;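 further: lentivirally expressed fusions sorted by FACS into six bins by GFP to DsRed ratio, PSI derived from sequencing read proportions per bin multiplied by bin number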
Details: c terminus: native
property_name: protein stability index

residue_change=K18L property_name="protein stability index" number=2.12
residue_change=S9Q property_name="protein stability index" number=3.19
residue_change=S17H property_name="protein stability index" number=2.95
residue_change=I3P property_name="protein stability index" number=3.96
residue_change=D8Y property_name="protein stability index" number=2.14
residue_change=I3T property_name="protein stability index" number=4.58
residue_change=S17G property_name="protein stability index" number=3.15
residue_change=I4H property_name="protein stability index" number=2.86
residue_change=D8N property_name="protein stability index" number=2.69
residue_change=S9Y property_name="protein stability index" number=2.24
residue_change=S23I property_name="protein stability index" number=3.74
residue_change=R22M property_name="protein stability index" number=3.29
residue_change=Y21L property_name="protein stability index" number=2.37
residue_change=E6D property_name="protein stability index" number=2.97
residue_change=I3R property_name="protein stability index" number=4.09
residue_change=I3E property_name="protein stability index" number=4.16
residue_change=P15M property_name="protein stability index" number=3.28
residue_change=Y21I property_name="protein stability index" number=2.47
residue_change=G12T property_name="protein stability index" number=3.24
residue_change=I7P property_name="protein stability index" number=4.47
residue_change=Y21T property_name="protein stability index" number=2.35
residue_change=L11Y property_name="protein stability index" number=3.4
